Assay: NCI Yeast Anticancer Drug Screen. Data for the mlh1 rad18 strain (AID 175)
Conditions: S. cerevisiae mlh1 rad18 strain growth inhibition; at 5.0 µM (retest, dose inferred, filed as 0.5); active compounds read high
Compounds without any hit were thinned out: in the full panel of roughly 79,000, 15% have a hit.
observable: growth inhibition (%)
Give the value in % but do not write % after it.

Below: 5 compounds and their reported growth inhibition.
[[record]]
compound = "C[Si](C)(C)CNC(=O)OCc1ccccc1"
test_value = -14

[[record]]
compound = "CN(C)Cc1cc(N=Nc2ccc(Cl)cc2)cc(CN(C)C)c1O"
test_value = 4

[[record]]
compound = "CCN(CC)C(C)(C)C(=O)/C=C/c1ccccc1"
test_value = 57

[[record]]
compound = "CCCCCCCCCCNC(=O)OCC"
test_value = -15

[[record]]
compound = "COc1cc(C2C3=C(COC3=O)Oc3cc4c(cc32)OCO4)ccc1O (stereo unspecified)"
test_value = 45


Next item in the queue.
# query: growth inhibition of entry CC(C)C1=CC2=C[C@H](O)[C@H]3C(C)(C)CCC[C@]3(C)C2=C(O)C1=O
62
